Experimental Target: Nuclear receptor subfamily 1 group D member 1 (Homo sapiens) (UniProt P20393)
Sequence (P20393 whole entry, looked up): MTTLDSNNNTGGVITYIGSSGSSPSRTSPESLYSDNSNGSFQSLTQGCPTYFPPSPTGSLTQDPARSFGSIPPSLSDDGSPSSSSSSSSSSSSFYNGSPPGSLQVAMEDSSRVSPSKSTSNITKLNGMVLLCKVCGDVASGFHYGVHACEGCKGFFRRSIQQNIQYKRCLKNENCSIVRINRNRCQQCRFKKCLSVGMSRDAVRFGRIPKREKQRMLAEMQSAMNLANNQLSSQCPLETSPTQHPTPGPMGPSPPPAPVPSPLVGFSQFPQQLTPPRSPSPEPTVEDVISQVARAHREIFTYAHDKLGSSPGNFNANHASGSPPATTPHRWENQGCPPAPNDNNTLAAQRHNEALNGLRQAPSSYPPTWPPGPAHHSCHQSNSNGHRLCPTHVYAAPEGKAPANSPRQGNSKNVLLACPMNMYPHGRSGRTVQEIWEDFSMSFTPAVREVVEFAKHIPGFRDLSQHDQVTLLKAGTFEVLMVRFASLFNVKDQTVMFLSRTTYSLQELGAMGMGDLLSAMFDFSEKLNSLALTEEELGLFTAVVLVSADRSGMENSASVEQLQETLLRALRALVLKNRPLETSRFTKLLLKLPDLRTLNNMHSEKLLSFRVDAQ
Assay Notes: modulators of Rev-erb alpha DNA binding, primary screen, biochemical, FITC-DNA, fluorescence polarization, uHTS (AID 1259318);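 also: 0% = DMSO wells with 35 nM protein and 100% = DMSO wells with 750 nM protein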
Measurement Conditions: Rev-erbα–FITC-DNA binding, 90 min, at 10 µM, active compounds read high
About 3,000 (0.81%) of roughly 370,000 compounds were called active. The entries come from a sample that favours actives as a whole.
Measurement Name: activity

// worked examples, activity included
[
  {
    "Compound": "COc1ccc(C(=O)Nc2cccc(NC(=O)c3ccc(OC)cc3OC)n2)c(OC)c1",
    "Measurement Name": "activity",
    "Result": "22.5% (active)"
  },
  {
    "Compound": "CC(C)(C)CC(C)(C)NCC(O)COCCOc1ccc(Br)cc1 (centres undefined)",
    "Measurement Name": "activity",
    "Result": "-2.77% (inactive)"
  },
  {
    "Compound": "CC1(C)Cc2nc3sc4c(SCC(=O)NC(c5ccccc5)c5ccccc5)ncnc4c3cc2CO1",
    "Measurement Name": "activity",
    "Result": "199% (active)"
  }
]

Prompt: Please supply the value of reported activity for the item Cc1cccc(C)c1NC(=O)CSc1nc2c([nH]1)c(=O)n(C)c(=O)n2C
Completion: 3.98% (inactive)

Prompt: Please supply the value of reported activity for the item COc1ccc(C(=O)N2CCCN(C)CC2)c(OC)c1
Completion: 1.46% (inactive)

Prompt: Please supply the value of reported activity for the item CN(C)S(=O)(=O)c1ccc(N2CCCC2)c(C(=O)NCc2ccccc2)c1
Completion: 5% (inactive)

Prompt: Please supply the value of reported activity for the item COc1ccc(C(=O)CSc2nnnn2C)c(OC)c1
Completion: 1.25% (inactive)

Prompt: Please supply the value of reported activity for the item COc1ccc(N2CCN(CCNS(=O)(=O)c3ccc(C(C)(C)C)cc3)CC2)cc1
Completion: 5.09% (inactive)

Prompt: Please supply the value of reported activity for the item COC(=O)c1cc(S(=O)(=O)N2CCN(c3cc(C)ccc3C)CC2)c[nH]1
Completion: 11.2% (inactive)

Prompt: Please supply the value of reported activity for the item COc1ccc(-c2csc(NC(=O)c3ccc(N4C(=O)CCC4=O)cc3)n2)cc1OC
Completion: 19.3% (active)

Prompt: Please supply the value of reported activity for the item CN1/C(=c2/s/c(=C3/C(=O)N(c4ccccc4)NC3=Nc3ccccc3)n(C)c2=O)C(C)(C)c2ccccc21
Completion: 42.5% (active)

Prompt: Please supply the value of reported activity for the item COc1ccccc1C(=O)Oc1ccc(N2C(=O)CCC2=O)cc1
Completion: -3.5% (inactive)

###

Experimental Target: Nuclear receptor subfamily 1 group D member 1 (Homo sapiens)
Assay Notes: modulators of Rev-erb alpha DNA binding, primary screen, biochemical, FITC-DNA, fluorescence polarization, uHTS (AID 1259318);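 also: 0% = DMSO wells with 35 nM protein and 100% = DMSO wells with 750 nM protein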
Measurement Conditions: Rev-erbα–FITC-DNA binding, 90 min, at 10 µM, active compounds read high
Screen size: about 370,000 compounds; about 3,000 (0.81%) were called active. The list comes from a sample in which actives are over-represented; it also holds close analogues and randomly drawn compounds.
Reported activity values follow for various compounds
# value in %; strip the unit string

// worked examples, activity included
[
  {
    "Smiles Notation": "Cc1csc(SCC(=O)Nc2sccc2C#N)n1",
    "Experimental Target": "Nuclear receptor subfamily 1 group D member 1 (Homo sapiens)",
    "Scale Unit": "%",
    "activity": -1.85
  },
  {
    "Smiles Notation": "CCCCN1CCN(C(=O)c2ccc3c(c2)NC(=O)C(C)(C)O3)CC1",
    "Experimental Target": "Nuclear receptor subfamily 1 group D member 1 (Homo sapiens)",
    "Scale Unit": "%",
    "activity": -3.01
  },
  {
    "Smiles Notation": "CCOc1cc(-c2conc2N)cc(OCC)c1OCC",
    "Experimental Target": "Nuclear receptor subfamily 1 group D member 1 (Homo sapiens)",
    "Scale Unit": "%",
    "activity": -2.64
  },
  {
    "Smiles Notation": "CCOC(=O)c1cc(-c2nnc(-c3cc(OC)c(OC)c(OC)c3)o2)c(C)nc1C",
    "Experimental Target": "Nuclear receptor subfamily 1 group D member 1 (Homo sapiens)",
    "Scale Unit": "%",
    "activity": 9.45
  },
  {
    "Smiles Notation": "CCn1c(=O)n2n(c1=O)[C@@]1(C=C3CCCC[C@H]32)N=C(NC(=O)c2ccccc2)N(Cc2ccccc2)[C@H]1Cc1ccccc1",
    "Experimental Target": "Nuclear receptor subfamily 1 group D member 1 (Homo sapiens)",
    "Scale Unit": "%",
    "activity": -9.89
  }
]

Prompt: Please supply the value of reported activity for the item CCOc1cc(-c2noc(CCC(=O)N3CCOCC3)n2)ccc1OC
Completion: -5.84

Prompt: Please supply the value of reported activity for the item COC(=O)/C(=C1\Oc2ccc(C(C)(C)C)cc2S1)C(F)(F)F
Completion: 2.88

Prompt: Please supply the value of reported activity for the item COc1ccc(CNC(=O)CN2CCC(n3nnc4cc(F)ccc43)CC2)cc1
Completion: 0.03

Prompt: Please supply the value of reported activity for the item C[C@H]1CCC/C=C/C(=O)c2c(O)cc(O)cc2CC(=O)O1
Completion: -5.09

Prompt: Please supply the value of reported activity for the item O=C(CSc1ccccn1)N1CCN(S(=O)(=O)c2ccc(Cl)cc2)CC1
Completion: -4.04

Prompt: Please supply the value of reported activity for the item CCCCCCCCCc1ccc(OCCOCCOCCOCCOCCOCCOCCOCCOCCO)cc1
Completion: 2.2

Prompt: Please supply the value of reported activity for the item COc1cccc(N2CCN(CC(=O)N(C)Cc3ccc(F)cc3)CC2)c1
Completion: -5.17

###

Experimental Target: Nuclear receptor subfamily 1 group D member 1 (Homo sapiens)
Assay Notes: modulators of Rev-erb alpha DNA binding, primary screen, biochemical, FITC-DNA, fluorescence polarization, uHTS (AID 1259318);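 also: 0% = DMSO wells with 35 nM protein and 100% = DMSO wells with 750 nM protein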
Measurement Conditions: Rev-erbα–FITC-DNA binding, 90 min, at 10 µM, active compounds read high
Out of some 370,000 compounds screened, about 3,000 (0.81%) were called active. Many of the other results were omitted from the sample, so actives are more common in it than they were.
Measurement Name: activity (%)
# value in %; strip the unit string

[
  {
    "Compound": "CC(C(=O)N=Nc1c(O)n(C)c2ccc(Br)cc12)n1cnc2ccccc2c1=O (configuration not stated)",
    "Experimental Target": "Nuclear receptor subfamily 1 group D member 1 (Homo sapiens)",
    "Readout Number": 2.88
  },
  {
    "Compound": "CN(C)S(=O)(=O)c1ccc(N2CCCC2)c(C(=O)Nc2cccc(F)c2)c1",
    "Experimental Target": "Nuclear receptor subfamily 1 group D member 1 (Homo sapiens)",
    "Readout Number": 6.34
  },
  {
    "Compound": "COc1ccc(-n2nc3c(c2NC(=O)c2ccc(N4C(=O)CCC4=O)cc2)CSC3)cc1",
    "Experimental Target": "Nuclear receptor subfamily 1 group D member 1 (Homo sapiens)",
    "Readout Number": 1.69
  },
  {
    "Compound": "CCC1(C)CC(=O)NC1=O (configuration not stated)",
    "Experimental Target": "Nuclear receptor subfamily 1 group D member 1 (Homo sapiens)",
    "Readout Number": -6.13
  },
  {
    "Compound": "CCCCC(=O)N[C@@H]1CC[C@@]23CCCN2C(=O)CCC[C@H]3[C@H]1C",
    "Experimental Target": "Nuclear receptor subfamily 1 group D member 1 (Homo sapiens)",
    "Readout Number": 1.41
  },
  {
    "Compound": "CCc1ccc(-c2cc3c(=O)n(CC(=O)NCCCN4CCN(Cc5ccccc5)CC4)nc(C)n3n2)cc1",
    "Experimental Target": "Nuclear receptor subfamily 1 group D member 1 (Homo sapiens)",
    "Readout Number": 2.85
  }
]

Prompt: Please supply the value of reported activity for the item O=C(c1cccc(C(F)(F)F)c1)N1CC[C@H]2[C@H](CCCN2Cc2cc(F)cc(F)c2)C1
Completion: 0.92

Prompt: Please supply the value of reported activity for the item COc1cccc(CN(C)CC(=O)NCc2ccccc2Cl)c1OC
Completion: -3.26

###

Experimental Target: Nuclear receptor subfamily 1 group D member 1 (Homo sapiens) (UniProt P20393)
Assay Notes: modulators of Rev-erb alpha DNA binding, primary screen, biochemical, FITC-DNA, fluorescence polarization, uHTS (AID 1259318);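 also: 0% = DMSO wells with 35 nM protein and 100% = DMSO wells with 750 nM protein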
Measurement Conditions: Rev-erbα–FITC-DNA binding, 90 min, at 10 µM, active compounds read high
Out of some 370,000 compounds screened, about 3,000 (0.81%) were called active. The full list was thinned out, with actives kept by preference.
Measurement Name: activity (%)
# value in %; strip the unit string

// worked examples, activity included
[
  {
    "Smiles Notation": "COC(=O)[C@]1(C)N[C@H](CN(C)C(=O)c2ccc(C(C)(C)C)cc2)[C@@H]2C(=O)N(C)C(=O)[C@@H]21",
    "activity [%]": -0.45
  },
  {
    "Smiles Notation": "FC(F)(F)c1cccc(Cn2ccc3ccc(-c4ccc5ccn(Cc6ccccc6)c5c4)cc32)c1",
    "activity [%]": -9.95
  },
  {
    "Smiles Notation": "Cc1cccc(NC(=O)CSc2nc3c(c(=O)[nH]2)CCC3)c1C",
    "activity [%]": -4.62
  }
]

Field: next compound
Prompt: Provide measured activity on Nuclear receptor subfamily 1 group D member 1 (Homo sapiens) (UniProt P20393) for Cc1ccc(C(=O)Nc2nnc(-c3cccs3)s2)cc1C please.
Completion: 22.5
